- testSystem: human PCSK9 / human LDLR EGFa domain interaction (Homo sapiens (Human), UniProt Q8NBP7)
- Sequence (Q8NBP7 153-692): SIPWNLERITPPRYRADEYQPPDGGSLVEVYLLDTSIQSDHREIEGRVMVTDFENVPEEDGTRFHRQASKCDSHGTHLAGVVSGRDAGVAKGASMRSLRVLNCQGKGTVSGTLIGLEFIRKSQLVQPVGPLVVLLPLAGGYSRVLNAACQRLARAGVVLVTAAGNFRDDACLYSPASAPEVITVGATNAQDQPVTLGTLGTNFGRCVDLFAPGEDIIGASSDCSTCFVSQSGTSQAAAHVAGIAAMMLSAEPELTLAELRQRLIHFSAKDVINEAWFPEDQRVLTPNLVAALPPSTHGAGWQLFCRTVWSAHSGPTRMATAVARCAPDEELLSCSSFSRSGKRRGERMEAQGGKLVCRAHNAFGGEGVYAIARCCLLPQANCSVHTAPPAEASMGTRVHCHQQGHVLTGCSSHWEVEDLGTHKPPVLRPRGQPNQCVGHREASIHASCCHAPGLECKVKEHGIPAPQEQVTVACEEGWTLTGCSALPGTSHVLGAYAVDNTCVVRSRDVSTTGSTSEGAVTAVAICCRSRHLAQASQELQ
- Sequence (Q8NBP7 31-152 partner): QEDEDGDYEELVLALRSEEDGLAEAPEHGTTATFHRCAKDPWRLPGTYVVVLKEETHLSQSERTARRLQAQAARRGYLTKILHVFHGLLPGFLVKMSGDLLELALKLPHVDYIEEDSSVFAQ
- testDescription: TR-FRET assay of inhibition of the PCSK9-LDLR protein-protein interaction
- Type: binding
- runConditions: TR-FRET, 20 nM human PCSK9, 20 nM human LDLR EGFa domain, 2 hours room temperature; read-out: IC50
- Experimental: A time-resolved fluorescence resonance energy (TR-FRET) assay was used to measure inhibition of the PCSK9-LDLR protein-protein interaction. […] Compounds were tested in dose-response and concentrations giving half-maximal inhibition calculated using a 4-parameter fit equation.
pIC50: −log10 of the molar value. Starred links: 1 amine or outer side, 2 acyl side, 3 side chain; linkers in the order of their positions; H or OH if unused. Positions of bridges follow the written chain, without caps; N, C: chain ends. Non-standard residues stand in square brackets, D forms with d. Residues, ends and D or L forms follow the SMILES beside them. Trp(5-F) = N[C@@H](Cc1c[nH]c2ccc(F)cc12)C(=O)O; Trp(1-Me) = Cn1cc(C[C@H](N)C(=O)O)c2ccccc21; dPro(cis-4-NH2) = N[C@H]1CN[C@@H](C(=O)O)C1; isoGln = NC(=O)[C@H](CCC(=O)[*:2])N[*:1]; Lys(N3) = [N-]=[N+]=NCCCC[C@H](N)C(=O)O; 2Nal = N[C@@H](Cc1ccc2ccccc2c1)C(=O)O; mXylylene = c1cc(C[*:1])cc(C[*:2])c1; AEF = NCCOc1ccc(C[C@H](N)C(=O)O)cc1; X39 = c1cc(CCSCN[*:2])cc(C[*:1])c1; X7 = O=C(Cc1ccc(CN[*:1])cc1)[*:2]; NMeT = CN[C@H](C(=O)O)[C@@H](C)O; Aad = N[C@@H](CCCC(=O)O)C(=O)O; dNMeL = CN[C@H](CC(C)C)C(=O)O; αMeP = C[C@@]1(C(=O)O)CCCN1; Nva = CCC[C@H](N)C(=O)O; Mpa = O=C(O)CCS
In this section, each of the compounds is paired with its reported pIC50.

Any idea what pIC50 was measured for CC(=O)N[C@H]1CC(=O)NCCOc2ccc(cc2)C[C@@H](C(N)=O)NC(=O)[C@]2(C)CCCN2C(=O)[C@H](Cc2ccc(O)cc2)NC(=O)[C@H](Cc2c[nH]cn2)NC(=O)[C@H](CC(=O)O)NC(=O)[C@H](Cc2c[nH]c3ccc(F)cc23)NC(=O)[C@H](Cc2c[nH]c3ccc(F)cc23)NC(=O)CNC(=O)[C@H](C)NC1=O [Compound 310] (Ac-DAG[Trp(5-F)][Trp(5-F)]DHY[αMeP][AEF]-NH2; lactam 1-10) ?
4.92 to 6.00

Please look up its pIC50: CC(C)C[C@@H]1NC(=O)[C@@H]2CCCN2C(=O)[C@H](Cc2c[nH]c3ccc(F)cc23)NC(=O)[C@H](Cc2c[nH]c3ccc(F)cc23)NC(=O)CNC(=O)[C@H](CCCCN)NC(=O)CCSCc2cccc(c2)CSC[C@@H](C(N)=O)NC(=O)[C@]2(C)CCCN2C(=O)[C@H](Cc2ccc(O)cc2)NC1=O [Compound 004] ([Mpa]KG[Trp(5-F)][Trp(5-F)]PLY[αMeP]C-NH2; linker 1-10 via mXylylene)
7.00 to 10.00

Can you share its pIC50? I mean this compound: COc1ccc(C[C@@H]2NC(=O)[C@H](CCCC(=O)O)NC(=O)[C@H]3C[C@@H](N)CN3C(=O)[C@H](Cc3c[nH]c4ccc(F)cc34)NC(=O)[C@H](Cc3c[nH]c4ccc(F)cc34)NC(=O)[C@@H](C)NC(=O)[C@H](CCCCN=[N+]=[N-])NC(=O)CCSCc3cccc(c3)CCSCNC(=O)[C@]3(C)CCCN3C2=O)cc1 [Compound 408] ([Mpa][Lys(N3)][dA][Trp(5-F)][Trp(5-F)][dPro(cis-4-NH2)][Aad]Y(Me)[αMeP]; linker 1-C via X39)
4.30 to 4.68

Endpoint output: pIC50 of CCC[C@@H]1NC(=O)CCSCc2cccc(c2)CSC[C@@H](C(N)=O)NC(=O)[C@@H]2CCCN2C(=O)[C@H](Cc2ccc(OC)cc2)NC(=O)[C@H]([C@@H](C)OC)N(C)C(=O)[C@@H]2CCCN2C(=O)[C@H](Cc2cn(C)c3ccccc23)NC(=O)[C@H](Cc2ccc3ccccc3c2)NC(=O)[C@@H](CC(C)C)N(C)C1=O [Compound 046] ([Mpa][Nva][dNMeL][2Nal][Trp(1-Me)]P[NMeT](Me)Y(Me)PC-NH2; linker 1-10 via mXylylene) . Value?
7.00 to 10.00

Tell me the measured pIC50 of COc1ccc(C[C@@H]2NC(=O)[C@H](Cc3cnc[nH]3)NC(=O)[C@H](CC(=O)O)NC(=O)[C@H](Cc3c[nH]c4ccc(F)cc34)NC(=O)[C@H](Cc3c[nH]c4ccc(F)cc34)NC(=O)[C@@H](C)NC(=O)[C@H](NC(C)=O)CCCCNC(=O)Cc3ccc(cc3)CNC(=O)CC[C@@H](C(N)=O)NC(=O)[C@]3(C)CCCN3C2=O)cc1 [Compound 398] (Ac-[dK][dA][Trp(5-F)][Trp(5-F)]DHY(Me)[αMeP][isoGln][X7]; lactam 1-C) , please.
7.00 to 10.00
